test system: LCLC-103H; test: relative viability (nuclei count vs DMSO), 5 days (fraction); higher = more cells survive; conditions: first compound 4 µM
Under this convention, y denotes relative viability strictly below 0.8 and n denotes relative viability at or above 0.8.

Completed entries (count: 5):
{"compound": "C[C@@H]1CN(CC(=O)Nc2ccc3c(c2)Cc2cccc(-c4cc(=O)cc(N5CCOCC5)o4)c2S3)C[C@H](C)O1 + CC(=O)c1c(C)c2cnc(Nc3ccc(N4CCNCC4)cn3)nc2n(C2CCCC2)c1=O [Palbociclib] (partner 0.5 µM)", "assigned_class": "y"}
{"compound": "COc1cc(N2CCC(C(N)=O)CC2)ccc1Nc1nc(N)c(Cl)c(Nc2ccccc2S(=O)(=O)C(C)C)n1 [HG-5-88-01] + CS(=O)(=O)N1CCN(Cc2cc3nc(-c4cccc5[nH]ncc45)nc(N4CCOCC4)c3s2)CC1 [Pictilisib] (partner 1 µM)", "assigned_class": "y"}
{"compound": "COc1cc(N2CCC(C(N)=O)CC2)ccc1Nc1nc(N)c(Cl)c(Nc2ccccc2S(=O)(=O)C(C)C)n1 [HG-5-88-01] + C[C@@H](Oc1cc(-c2cnn(C3CCNCC3)c2)cnc1N)c1c(Cl)ccc(F)c1Cl [Crizotinib] (partner 1 µM)", "assigned_class": "n"}
{"compound": "C[C@@H]1CN(CC(=O)Nc2ccc3c(c2)Cc2cccc(-c4cc(=O)cc(N5CCOCC5)o4)c2S3)C[C@H](C)O1 + N=C(N)NC(=N)NCCc1ccccc1 [Phenformin] (partner 250 µM)", "assigned_class": "y"}
{"compound": "Clc1ccc(Nc2nnc(Cc3ccncc3)c3ccccc23)cc1 [Vatalanib] + C[C@@H](Oc1cc(-c2cnn(C3CCNCC3)c2)cnc1N)c1c(Cl)ccc(F)c1Cl [Crizotinib] (partner 1 µM)", "assigned_class": "n"}

Data request: Lab log: compare recorded relative viability with 0.8; is it strictly lower for COc1cc(N2CCC(C(N)=O)CC2)ccc1Nc1nc(N)c(Cl)c(Nc2ccccc2S(=O)(=O)C(C)C)n1 [HG-5-88-01] + O=C(c1cc(Cc2n[nH]c(=O)c3ccccc23)ccc1F)N1CCN(C(=O)C2CC2)CC1 [Olaparib] (partner 8 µM) ?
Data returned: y
